The measured values listed here are drawn from patent US7115632B1.

Target of assay: MMP-2 (Homo sapiens)
Construct: made in house; provided by Dr. Gregory Goldberg, Washington University
Sequence (P08253 110-660): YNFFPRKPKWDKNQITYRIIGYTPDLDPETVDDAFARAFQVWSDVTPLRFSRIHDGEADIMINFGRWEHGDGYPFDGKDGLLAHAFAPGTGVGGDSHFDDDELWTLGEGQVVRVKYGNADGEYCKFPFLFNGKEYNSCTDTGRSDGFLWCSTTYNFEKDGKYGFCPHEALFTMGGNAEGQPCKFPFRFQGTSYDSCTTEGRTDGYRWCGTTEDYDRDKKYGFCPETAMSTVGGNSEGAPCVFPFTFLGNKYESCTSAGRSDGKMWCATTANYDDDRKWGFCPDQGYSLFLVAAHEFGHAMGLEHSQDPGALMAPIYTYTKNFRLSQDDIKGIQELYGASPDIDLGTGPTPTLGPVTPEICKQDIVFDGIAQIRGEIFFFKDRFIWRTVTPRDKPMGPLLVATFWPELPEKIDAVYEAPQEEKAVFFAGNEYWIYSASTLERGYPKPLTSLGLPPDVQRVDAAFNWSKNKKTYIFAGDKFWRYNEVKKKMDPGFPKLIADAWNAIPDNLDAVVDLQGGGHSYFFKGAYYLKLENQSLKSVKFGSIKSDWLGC
Test name: In vitro metalloprotease inhibition, fluorogenic MCA peptide substrate
Assay type: biochemical
Test settings: Inhibition Table B
pIC50: −log10 of the molar value.
Value kind: pIC50

1) COc1ccc(S(=O)(=O)N2CCC(Oc3ccc(-c4ccccc4)cc3)CC2)c(C(=O)NO)c1OC [Example 28] = 9.40
2) O=C(NO)c1c(OC2CCOCC2)cccc1S(=O)(=O)N1CCC(Oc2ccc(C(F)(F)F)cc2)CC1 [Example 48] = 9.00
3) COc1cccc(OC2CCN(S(=O)(=O)c3ccc(OC)c(OC)c3C(=O)NO)CC2)c1 [Example 57] = 7.92
4) CCCCOc1ccc(OC2CCN(S(=O)(=O)c3ccc(OC)c(OC)c3C(=O)NO)CC2)cc1 [Example 54] = 9.10

---

Target of assay: MMP-13 (Homo sapiens)
Construct: made in house; host or cells: insect cells, baculovirus expression
Test name: In vitro metalloprotease inhibition, fluorogenic MCA peptide substrate
Type: biochemical
Test settings: Inhibition Table B
Value kind: IC50 (nM)

1. COc1ccc(OC)c(S(=O)(=O)N2CCC(Oc3ccc(C(F)(F)F)cc3)CC2)c1C(=O)NO = 110
2. COc1ccc(S(=O)(=O)N2CCC(Oc3ccccc3)CC2)c(C(=O)NO)c1OC = 6.7
3. CCCCOc1ccc(OC2CCN(S(=O)(=O)c3ccc(OC)c(OC)c3C(=O)NO)CC2)cc1 = 1.6
4. COc1ccccc1-c1ccc(OC2CCN(S(=O)(=O)c3ccc(OC)c(OC)c3C(=O)NO)CC2)cc1 = 5.5

---

Target of assay: MMP-2 (Homo sapiens)
Construct: made in house; provided by Dr. Gregory Goldberg, Washington University
Test name: In vitro metalloprotease inhibition, fluorogenic MCA peptide substrate
Format: biochemical
Test settings: Inhibition Table A
Value kind: IC50

1. O=C(Cc1ccccc1S(=O)(=O)c1ccc(Oc2ccccc2)cc1)NO [Example 2] = 0.3 nM
2. COc1ccc(S(=O)(=O)N2CCC(Oc3ccc(C(F)(F)F)cc3)CC2)c(C(=O)NO)c1OC [Example 16] = 2.4 nM
3. O=C(NO)c1ccccc1CS(=O)(=O)c1ccc(Oc2ccccc2)cc1 [Example 1] = 10 nM
4. O=C(NO)c1ccccc1NS(=O)(=O)c1ccc(Oc2ccccc2)cc1 [Example 5] = 3500 nM
5. O=C(NO)c1ccccc1S(=O)(=O)N1CCC(Oc2ccc(OC(F)(F)F)cc2)CC1 [Example 12] = 2.2 nM
6. O=C(NO)c1ccccc1S(=O)(=O)N1CCC(c2ccccc2)CC1 [Example 9] = 45 nM
7. O=C(NO)c1c(F)cccc1S(=O)(=O)N1CCC(Oc2ccc(C(F)(F)F)cc2)CC1 [Example 19] = 5 nM
8. O=C(NO)c1ccccc1S(=O)(=O)N1CCC(Oc2ccncc2)CC1 [Example 21] = 5.9 nM
9. O=C(NO)c1c(Cl)cccc1S(=O)(=O)N1CCC(Oc2ccc(C(F)(F)F)cc2)CC1 [Example 20] = 1.8 nM
10. CC(O)(C(=O)NO)c1ccccc1S(=O)(=O)N1CCC(c2ccccc2)CC1 (stereo not shown) [Example 10] = 70 nM

---

Target of assay: MMP-2 (Homo sapiens)
Construct: made in house; provided by Dr. Gregory Goldberg, Washington University
Test name: In vitro metalloprotease inhibition, fluorogenic MCA peptide substrate
Assay type: biochemical
Test settings: Inhibition Table B
Value kind: IC50 (nM)

1) COc1ccc(OC2CCN(S(=O)(=O)c3ccc(OC)c(OC)c3C(=O)NO)CC2)cc1 [Example 45] = 1.8
2) CCCCOC1CCN(S(=O)(=O)c2ccc3c(c2C(=O)NO)OCO3)CC1 [Example 43] = 200
3) COc1ccc(S(=O)(=O)N2CCN(c3ccc(C(F)(F)F)cc3)CC2)c(C(=O)NO)c1OC [Example 26] = 6.5
4) COc1ccc(S(=O)(=O)N2CCC(Sc3ccccc3)CC2)c(C(=O)NO)c1OC [Example 24] = 0.9
5) COc1ccccc1OC1CCN(S(=O)(=O)c2ccc(OC)c(OC)c2C(=O)NO)CC1 [Example 34] = 330
6) O=C(NO)c1c(S(=O)(=O)N2CCC(Oc3ccc4c(c3)OCO4)CC2)ccc2c1OCO2 [Example 49] = 1.1
7) COc1ccc(S(=O)(=O)N2CCC(Oc3ccc(-c4cccc(C(F)(F)F)c4)cc3)CC2)c(C(=O)NO)c1OC [Example 27] = 3.3
8) CCOc1ccccc1-c1ccc(OC2CCN(S(=O)(=O)c3ccc(OC)c(OC)c3C(=O)NO)CC2)cc1 [Example 40] = 80

---

pIC50: −log10 of the molar value.
Measurement record for MT1-MMP (Homo sapiens, UniProt P50281); quantity recorded: pIC50.
Value kind: pIC50

1) COc1ccc(S(=O)(=O)N2CCC(Sc3ccccc3)CC2)c(C(=O)NO)c1OC [Example 24] = 7.60
2) COc1ccc(S(=O)(=O)N2CCC(Oc3ccc(OC(F)(F)F)cc3)CC2)c(C(=O)NO)c1OC [Example 33] = 6.44
3) CCCCOc1ccc(OC2CCN(S(=O)(=O)c3ccc(OC)c(OC)c3C(=O)NO)CC2)cc1 [Example 54] = 6.70

---

Form field: IC50 (one value per entry).
Target of assay: MMP-3 (Homo sapiens)
Sequence (P08254 100-477, species assumed): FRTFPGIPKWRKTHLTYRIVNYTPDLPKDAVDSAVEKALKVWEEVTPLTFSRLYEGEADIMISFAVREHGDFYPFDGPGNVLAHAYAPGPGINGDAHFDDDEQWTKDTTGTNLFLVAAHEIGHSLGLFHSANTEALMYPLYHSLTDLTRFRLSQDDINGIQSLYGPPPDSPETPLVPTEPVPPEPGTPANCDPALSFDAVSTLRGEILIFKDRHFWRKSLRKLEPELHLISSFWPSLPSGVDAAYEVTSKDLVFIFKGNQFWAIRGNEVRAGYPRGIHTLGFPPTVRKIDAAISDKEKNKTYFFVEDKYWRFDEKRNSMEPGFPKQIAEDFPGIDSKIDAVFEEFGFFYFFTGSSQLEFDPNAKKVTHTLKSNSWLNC
Where a name gives a salt, the structure may show the parent alone.
Value kind: IC50 (nM)

1. COc1ccc(OC2CCN(S(=O)(=O)c3ccc(OC)c(OC)c3C(=O)NO)CC2)cc1 = 900
2. CCCCOc1ccc(OC2CCN(S(=O)(=O)c3ccc(OC)c(OC)c3C(=O)NO)CC2)cc1 = 31.6
3. COc1ccc(S(=O)(=O)N2CCC(Sc3ccccc3)CC2)c(C(=O)NO)c1OC = 400
4. COc1ccc(S(=O)(=O)N2CCC(Oc3ccc(OC(F)(F)F)cc3)CC2)c(C(=O)NO)c1OC = 100
5. COc1ccc(N2CCN(S(=O)(=O)c3ccc(OC)c(OC)c3C(=O)NO)CC2)cc1 [Example 41, monohydrochloride] = 8000
6. COc1ccc(S(=O)(=O)N2CCC(Oc3ccc4c(c3)OCO4)CC2)c(C(=O)NO)c1OC = 1300
7. COc1ccccc1-c1ccc(OC2CCN(S(=O)(=O)c3ccc(OC)c(OC)c3C(=O)NO)CC2)cc1 = 170
8. COc1ccc(S(=O)(=O)N2CCN(c3ccc(C(F)(F)F)cc3)CC2)c(C(=O)NO)c1OC = 1750
9. O=C(NO)c1c(S(=O)(=O)N2CCC(Oc3ccc(C(F)(F)F)cc3)CC2)ccc2c1OCO2 = 600
10. COc1ccc(S(=O)(=O)N2CCC(Oc3ccc(-c4cccc(C(F)(F)F)c4)cc3)CC2)c(C(=O)NO)c1OC = 300

---

Target of assay: MMP-13 (Homo sapiens, UniProt P45452)
Construct: made in house; host or cells: insect cells, baculovirus expression
Test name: In vitro metalloprotease inhibition, fluorogenic MCA peptide substrate
Assay type: biochemical
Test settings: Inhibition Table B
Structures can show the parent of a compound that is named as a salt.
Classes by IC50: bottom (below 20 nM), middle (20 nM to below 100 nM), top (100 nM or more)

1. O=C(NO)c1c(S(=O)(=O)N2CCC(Oc3ccc(C(F)(F)F)cc3)CC2)ccc2c1OCCO2 [Example 31] = bottom
2. COc1ccc(S(=O)(=O)N2CCN(c3ccc(C(F)(F)F)cc3)CC2)c(C(=O)NO)c1OC [Example 26] = middle
3. COc1ccc(S(=O)(=O)N2CCN(Cc3ccc(OC(F)(F)F)cc3)CC2)c(C(=O)NO)c1OC [Example 53, monohydrochloride] = top
4. O=C(NO)c1c(Cl)sc(Cl)c1S(=O)(=O)N1CCC(Oc2ccc(C(F)(F)F)cc2)CC1 [Example 32] = top
5. O=C(NO)c1c(S(=O)(=O)N2CCC(Oc3ccc4c(c3)OCO4)CC2)ccc2c1OCO2 [Example 49] = bottom
6. CCCCCCCOC1CCN(S(=O)(=O)c2ccc3c(c2C(=O)NO)OCO3)CC1 [Example 44] = top
7. COc1ccc(S(=O)(=O)N2CCC(Oc3ccc(-c4cccc(C(F)(F)F)c4)cc3)CC2)c(C(=O)NO)c1OC [Example 27] = bottom
8. O=C(NO)c1ccccc1S(=O)(=O)N1CCC(Oc2ccccn2)CC1 [Example 42, monohydrochloride] = top
9. O=C(NO)c1c(S(=O)(=O)N2CCC(Oc3ccc(C(F)(F)F)cc3)CC2)ccc2c1OCO2 [Example 36] = bottom
10. COc1ccc(S(=O)(=O)N2CCC(Oc3ccc4c(c3)OCO4)CC2)c(C(=O)NO)c1OC [Example 50] = bottom
11. CCOc1ccccc1-c1ccc(OC2CCN(S(=O)(=O)c3ccc(OC)c(OC)c3C(=O)NO)CC2)cc1 [Example 40] = middle
12. COc1ccc(S(=O)(=O)N2CCC(Oc3ccc(-c4ccccc4C(F)(F)F)cc3)CC2)c(C(=O)NO)c1OC [Example 38] = middle
